Attribute: pKi
- assay.target: Pepsin A (Sus scrofa)
- Sequence (P00791 whole entry): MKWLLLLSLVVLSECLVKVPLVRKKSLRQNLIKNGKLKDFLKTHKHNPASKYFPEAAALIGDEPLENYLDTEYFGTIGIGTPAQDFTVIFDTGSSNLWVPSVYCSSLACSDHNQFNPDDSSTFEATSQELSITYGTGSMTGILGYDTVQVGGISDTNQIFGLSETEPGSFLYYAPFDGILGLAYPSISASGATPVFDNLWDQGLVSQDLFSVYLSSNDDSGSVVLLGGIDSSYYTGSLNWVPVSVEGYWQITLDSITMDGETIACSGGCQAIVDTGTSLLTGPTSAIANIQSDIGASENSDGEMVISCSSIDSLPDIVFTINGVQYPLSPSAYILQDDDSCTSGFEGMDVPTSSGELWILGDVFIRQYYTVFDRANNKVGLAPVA
- procedure.summary: Tested for time independent inhibition constant against porcine pepsin
Just so you know, pKi here is -log10 of the concentration in molar units; reply with that number alone.

compound	assay.target	pKi
COC(=O)CNC(=O)C(C)NC(=O)CC(O)C(CC(C)C)NC(=O)C(NC(=O)CC(C)C)C(C)C (stereo not drawn)	Pepsin A (Sus scrofa)	7.17
CNC(=O)C(C)NC(=O)CC(O)C(CC(C)C)NC(=O)C(NC(=O)CC(C)C)C(C)C (stereo not drawn)	Pepsin A (Sus scrofa)	6.85

// below: pKi requested for another compound
Please look up its pKi: CC(C)CCNC(=O)C(C)NC(=O)CC(O)C(CC(C)C)NC(=O)CNC(=O)CC(C)C (stereo not drawn)
7.00

From: ChEMBL document CHEMBL1122238
